target: Inhibitor of nuclear factor kappa-B kinase subunit beta (Homo sapiens, UniProt O14920)
Sequence (O14920 whole entry): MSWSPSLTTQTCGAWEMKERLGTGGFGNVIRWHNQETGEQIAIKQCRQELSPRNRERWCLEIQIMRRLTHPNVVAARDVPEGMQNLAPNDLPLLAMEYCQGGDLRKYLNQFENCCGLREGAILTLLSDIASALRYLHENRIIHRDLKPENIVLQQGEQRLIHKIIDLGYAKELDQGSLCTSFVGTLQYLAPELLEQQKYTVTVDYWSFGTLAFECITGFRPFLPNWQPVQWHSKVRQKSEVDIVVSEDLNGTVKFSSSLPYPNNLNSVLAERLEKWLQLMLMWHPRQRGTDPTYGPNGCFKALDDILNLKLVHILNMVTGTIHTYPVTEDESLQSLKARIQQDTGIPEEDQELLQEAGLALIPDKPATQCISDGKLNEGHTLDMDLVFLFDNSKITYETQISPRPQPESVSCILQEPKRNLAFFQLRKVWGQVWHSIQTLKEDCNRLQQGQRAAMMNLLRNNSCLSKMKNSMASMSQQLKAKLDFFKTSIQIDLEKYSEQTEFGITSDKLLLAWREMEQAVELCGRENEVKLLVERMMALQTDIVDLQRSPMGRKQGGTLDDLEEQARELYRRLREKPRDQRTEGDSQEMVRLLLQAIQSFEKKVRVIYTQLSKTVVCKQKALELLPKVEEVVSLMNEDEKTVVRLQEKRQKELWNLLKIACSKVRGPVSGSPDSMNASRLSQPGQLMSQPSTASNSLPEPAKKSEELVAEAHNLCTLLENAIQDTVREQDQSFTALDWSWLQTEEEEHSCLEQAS
assayMetric: IC50 (µM)

[1] CN(C)S(=O)(=O)c1ccc(-c2cc(-c3ccncc3)cc(C(N)=O)c2O)cc1
[2] COCCCNNS(=O)(=O)c1ccc(-c2cc(-c3ccccc3)cc(C(N)=O)c2N)cc1
[3] NC(=O)c1cc(-c2ccc(Cl)cc2)cc(-c2ccc(S(N)(=O)=O)cc2)c1O
Prompt line: I'd appreciate it if you could rank the molecules mentioned above by IC50, largest value first. Dear reader, please state the labels in the requested order.
Response line: 1, 3, 2
(1: 7.94 µM, 3: 1.58 µM, 2: 0.251 µM)
